# tested_on: Tyrosine-protein phosphatase non-receptor type 1 (Homo sapiens, UniProt P18031)
# Sequence (P18031 whole entry): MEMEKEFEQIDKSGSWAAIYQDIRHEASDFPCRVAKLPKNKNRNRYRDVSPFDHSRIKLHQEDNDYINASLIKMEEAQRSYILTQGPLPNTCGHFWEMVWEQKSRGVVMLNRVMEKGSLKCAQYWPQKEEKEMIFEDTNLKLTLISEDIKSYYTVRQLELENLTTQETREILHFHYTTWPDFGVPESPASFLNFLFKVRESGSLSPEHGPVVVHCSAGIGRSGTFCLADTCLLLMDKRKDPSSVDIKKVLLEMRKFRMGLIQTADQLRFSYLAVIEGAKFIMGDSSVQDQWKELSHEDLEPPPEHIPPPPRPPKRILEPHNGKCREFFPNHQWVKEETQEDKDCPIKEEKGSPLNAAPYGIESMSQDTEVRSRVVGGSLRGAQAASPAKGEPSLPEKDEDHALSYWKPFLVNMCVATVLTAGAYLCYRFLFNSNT
assay_metric: pIC50
pIC50 here: minus log base 10 of the concentration, concentration in moles per litre.

q: Endpoint output: pIC50 of COc1ccc(CCNC(=O)Cc2cccc3ccccc23)cc1 . Value?
a: 4.16

Values were extracted from ChEMBL document CHEMBL1153956.
